# Test Details: Inhibition of LPS induced NO production in mouse BV-2 cells by Griess reagent based analysis
# Type: functional, cell-based
Hi! Just check whether EC50 is below 6 µM. Below gives 1, equal or above gives 0.

C#CCO/N=C(\Cn1ccnc1)c1ccc(OC)cc1: 0
FC(F)(F)c1ccccc1CO/N=C(\Cn1ccnc1)c1ccc2c(c1)OCO2: 1
Cc1ccc(C(=O)O/N=C(\Cn2ccnc2)c2ccc3c(c2)OC(C)(C)O3)c2ccccc12: 1
CC1(C)Oc2ccc(/C(Cn3ccnc3)=N/OC(=O)c3ccc4ccccc4c3)cc2O1: 1

Query: In the record for "Cc1cccc(C(=O)O/N=C(\Cn2ccnc2)c2ccc3c(c2)OC(C)(C)O3)c1" , is EC50 less than 6 µM?
Result: 1

Query: Below 6 µM on EC50? Entry "c1ccc(CO/N=C(\Cn2ccnc2)c2ccc3c(c2)OCO3)cc1"
Result: 1

Query: Answer whether the compound O=c1c(O)c(-c2ccc(O)c(O)c2)oc2cc(O)cc(O)c12 [QUERCETIN] has EC50 strictly less than 6 µM
Result: 0

Query: EC50 under 6 µM? Item: "CC1(C)Oc2ccc(/C(Cn3ccnc3)=N/OC(=O)c3ccc(Cl)cc3)cc2O1"
Result: 1

Query: Say whether its EC50 is strictly beneath 6 µM. Entry: "CC1(C)Oc2ccc(/C(Cn3ccnc3)=N/OC(=O)/C=C/c3cccc(Cl)c3)cc2O1"
Result: 1

Query: Lab note: EC50 threshold 6 µM. Does this compound come in strictly under it? "FC(F)(F)c1ccc(CO/N=C(\Cn2ccnc2)c2ccc3c(c2)OCO3)cc1"
Result: 1

Query: Check if EC50 falls below 6 µM for "CC1(C)Oc2ccc(/C(Cn3ccnc3)=N/OC(=O)c3ccc(F)cc3)cc2O1" .
Result: 0

* * *

# Assayed Target: Acetylcholinesterase (Electrophorus electricus, UniProt O42275)
# Sequence (O42275 whole entry): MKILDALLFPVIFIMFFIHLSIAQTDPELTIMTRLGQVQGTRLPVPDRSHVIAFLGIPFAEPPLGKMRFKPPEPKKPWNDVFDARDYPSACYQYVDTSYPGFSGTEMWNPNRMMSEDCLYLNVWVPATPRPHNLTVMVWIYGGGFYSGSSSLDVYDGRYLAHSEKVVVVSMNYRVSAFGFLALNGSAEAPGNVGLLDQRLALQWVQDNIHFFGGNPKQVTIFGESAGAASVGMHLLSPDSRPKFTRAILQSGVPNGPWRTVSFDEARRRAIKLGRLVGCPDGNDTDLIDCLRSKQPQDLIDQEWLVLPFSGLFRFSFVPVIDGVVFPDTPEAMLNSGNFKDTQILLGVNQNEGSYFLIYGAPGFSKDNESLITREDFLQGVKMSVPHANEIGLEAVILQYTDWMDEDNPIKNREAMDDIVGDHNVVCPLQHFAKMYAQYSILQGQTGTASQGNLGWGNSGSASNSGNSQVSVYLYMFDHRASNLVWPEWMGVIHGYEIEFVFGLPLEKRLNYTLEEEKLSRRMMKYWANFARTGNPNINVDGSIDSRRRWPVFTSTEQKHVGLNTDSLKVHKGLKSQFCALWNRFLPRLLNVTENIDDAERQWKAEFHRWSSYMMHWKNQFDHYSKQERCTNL
Metric: pKi
Quick note: pKi means taking -log10 of the concentration in moles per liter.

Query: // pKi lookup, key: "CC1(C)Oc2ccc(/C(Cn3ccnc3)=N/OC(=O)c3ccc4ccccc4c3)cc2O1"
Result: 6.51

* * *

The molecules listed here are annotated with their viability at 20 µM.
# Test Details: Cytotoxicity against LPS induced mouse BV-2 cells assessed as inhibition in cell viability at 20 uM measured by MTT assay
# Test Context: BV-2 cells
I only need the number, in %, no unit after it.

// known answers, use as guide
c1ccc(CO/N=C(\Cn2ccnc2)c2ccc3c(c2)OCO3)cc1: 97.8
CC1(C)Oc2ccc(/C(Cn3ccnc3)=N/OC(=O)c3ccc4ccccc4c3)cc2O1: 94.1
CC1(C)Oc2ccc(/C(Cn3ccnc3)=N/OC(=O)c3ccc(F)cc3)cc2O1: 99.7

Query: Can you share its viability at 20 µM? I mean this molecule: "CC1(C)Oc2ccc(/C(Cn3ccnc3)=N/OC(=O)/C=C/c3ccccc3)cc2O1"
Result: 91.8

Query: Given the entry "CC1(C)Oc2ccc(/C(Cn3ccnc3)=N/OCc3ccccc3)cc2O1" , report its measured viability at 20 µM.
Result: 95.7

Query: Need viability at 20 µM, item "CC1(C)Oc2ccc(/C(Cn3ccnc3)=N/OC(=O)c3ccc(Br)cc3)cc2O1"
Result: 92.6

* * *

# Test Details: Inhibition of LPS induced NO production in mouse BV-2 cells by Griess reagent based analysis
# Format: functional, cell-based
Metric: EC50 (µM)
Record the value in µM, omitting the unit from your answer.

Consider the worked cases shown below.
CC1(C)Oc2ccc(/C(Cn3ccnc3)=N/OC(=O)c3ccc4cc(Br)ccc4c3)cc2O1: 1.13
CC1(C)Oc2ccc(/C(Cn3ccnc3)=N/OC(=O)Cc3cccc4ccccc34)cc2O1: 1.02
C#CCO/N=C(\Cn1ccnc1)c1ccc(Br)cc1: 5.6
CC1(C)Oc2ccc(/C(Cn3ccnc3)=N/OCc3ccccc3)cc2O1: 5.69
CC1(C)Oc2ccc(/C(Cn3ccnc3)=N/OC(=O)c3ccccc3Br)cc2O1: 3.89

Query: Give the measured EC50 of "Cc1ccc(/C=C/C(=O)O/N=C(\Cn2ccnc2)c2ccc3c(c2)OC(C)(C)O3)cc1" .
Result: 6.03

Query: Need EC50, item "C#CCO/N=C(\Cn1ccnc1)c1ccc2c(c1)OCO2"
Result: 2.07

Query: For the molecule shown here, "CC1(C)Oc2ccc(/C(Cn3ccnc3)=N/OC(=O)c3ccc(Br)cc3)cc2O1" , give the reported EC50.
Result: 3.16

Query: // EC50 lookup, key: "C#CCO/N=C(\Cn1ccnc1)c1ccc2c(c1)OC(C)(C)O2"
Result: 3.25

Query: Param item = "C=C(C)CO/N=C(\Cn1ccnc1)c1ccc2c(c1)OCO2" ; retrieve measured EC50.
Result: 2.12

* * *

# Test Details: Cytotoxicity against LPS induced mouse BV-2 cells assessed as inhibition in cell viability at 20 uM measured by MTT assay
# Test Context: BV-2 cells
Metric: viability at 20 µM (%)
Only the number, expressed in %, is required.

Examples from the recorded data:
C#CCO/N=C(\Cn1ccnc1)c1ccc(C(F)(F)F)cc1: 93.7
C#CCO/N=C(\Cn1ccnc1)c1ccc2c(c1)OC(C)(C)O2: 95.1
CC1(C)Oc2ccc(/C(Cn3ccnc3)=N/OC(=O)c3ccccc3Br)cc2O1: 95.4

Query: Could you share which viability at 20 µM value was measured for "C#CCO/N=C(\Cn1ccnc1)c1ccc(I)cc1" ?
Result: 92.1

Query: Quick one: viability at 20 µM of "C#CCO/N=C(\Cn1ccnc1)c1ccc(Cl)cc1" ?
Result: 92.4

Query: Entry "CC1(C)Oc2ccc(/C(Cn3ccnc3)=N/OC(=O)c3ccc4cc(Br)ccc4c3)cc2O1" has what viability at 20 µM?
Result: 92.7

* * *

# maps each entry to its EC50
# Test Details: Inhibition of LPS induced NO production in mouse BV-2 cells by Griess reagent based analysis
# Type: functional, cell-based
Use µM as the unit, but write only the number.

Examples with their reported EC50 follow.
C=CCO/N=C(\Cn1ccnc1)c1ccc2c(c1)OCO2: 3.42
CC1(C)Oc2ccc(/C(Cn3ccnc3)=N/OC(=O)c3ccc4ccccc4c3Br)cc2O1: 6.5
CC1(C)Oc2ccc(/C(Cn3ccnc3)=N/OC(=O)/C=C/c3ccc(F)cc3)cc2O1: 5.96
C#CCO/N=C(\Cn1ccnc1)c1ccc(F)cc1: 7.8
C#CCO/N=C(\Cn1ccnc1)c1ccc(C(F)(F)F)cc1: 8.55
C#CCO/N=C(\Cn1ccnc1)c1ccc(I)cc1: 12.7

Query: Give its EC50 value. Item: "N#Cc1ccc(CO/N=C(\Cn2ccnc2)c2ccc3c(c2)OCO3)cc1"
Result: 4.24

Query: What value of EC50 has been reported for the following compound? "CC1(C)Oc2ccc(/C(Cn3ccnc3)=N/OC(=O)/C=C/c3ccccc3)cc2O1"
Result: 5.85

Query: Returns the measured EC50 for the input compound. Input: "CC1(C)Oc2ccc(/C(Cn3ccnc3)=N/OC(=O)/C=C/c3ccc(Cl)cc3)cc2O1"
Result: 3.71

Query: Item under review: "Cc1ccc(C(=O)O/N=C(\Cn2ccnc2)c2ccc3c(c2)OC(C)(C)O3)cc1" . Reported EC50?
Result: 9.05

* * *

# Test Details: Cytotoxicity against LPS induced mouse BV-2 cells assessed as inhibition in cell viability at 20 uM measured by MTT assay
# Test Context: BV-2 cells
Metric: viability at 20 µM (%)
The reply should contain only the number, in %.

As a guide, the following entries are already answered.
CC1(C)Oc2ccc(/C(Cn3ccnc3)=N/OC(=O)/C=C/c3ccc(Br)cc3)cc2O1: 96.3
Cc1ccc(/C=C/C(=O)O/N=C(\Cn2ccnc2)c2ccc3c(c2)OC(C)(C)O3)cc1: 93.6
O=c1c(O)c(-c2ccc(O)c(O)c2)oc2cc(O)cc(O)c12: 94.3
C#CCO/N=C(\Cn1ccnc1)c1ccc2c(c1)OCO2: 92.5

Query: What value of viability at 20 µM has been recorded for this entry: "CC1(C)Oc2ccc(/C(Cn3ccnc3)=N/OC(=O)Cc3ccc4ccccc4c3)cc2O1"
Result: 96.4

Query: Field request: viability at 20 µM | item: "CC1(C)Oc2ccc(/C(Cn3ccnc3)=N/OC(=O)c3ccc(Cl)cc3)cc2O1"
Result: 90.5

Query: Need viability at 20 µM of "N#Cc1ccc(CO/N=C(\Cn2ccnc2)c2ccc3c(c2)OCO3)cc1" , thanks.
Result: 91.6

* * *

Catalogue of EC50 readings, one per entry.
# Test Details: Inhibition of LPS induced NO production in mouse BV-2 cells by Griess reagent based analysis
# Assay type: functional, cell-based
Supply the numeric figure in nM, leaving out any unit text.

CC(C)=CCO/N=C(\Cn1ccnc1)c1ccc2c(c1)OCO2: 1760

In the following, a different molecule is considered.
Query: Requested read-out: EC50. Entry: "CC1(C)Oc2ccc(/C(Cn3ccnc3)=N/OC(=O)/C=C/c3ccccc3F)cc2O1"
Result: 3190

* * *

# Test Details: Cytotoxicity against LPS induced mouse BV-2 cells assessed as inhibition in cell viability at 20 uM measured by MTT assay
# Test Context: BV-2 cells
Overview of reported viability at 20 µM across a group of compounds:
Provide the reading as a plain figure in %.

Consider the following illustrative entries.
FC(F)(F)c1ccc(CO/N=C(\Cn2ccnc2)c2ccc3c(c2)OCO3)cc1: 92.8
FC(F)(F)c1ccccc1CO/N=C(\Cn1ccnc1)c1ccc2c(c1)OCO2: 95.4
CC1(C)Oc2ccc(/C(Cn3ccnc3)=N/OC(=O)/C=C/c3ccccc3F)cc2O1: 90.8
Cc1cccc(C(=O)O/N=C(\Cn2ccnc2)c2ccc3c(c2)OC(C)(C)O3)c1: 96.1
CC1(C)Oc2ccc(/C(Cn3ccnc3)=N/OC(=O)c3ccc4ccccc4c3Br)cc2O1: 90.8
CC1(C)Oc2ccc(/C(Cn3ccnc3)=N/OC(=O)/C=C/c3ccc(C(F)(F)F)cc3)cc2O1: 92.1

Query: What does the record list as viability at 20 µM for "CC1(C)Oc2ccc(/C(Cn3ccnc3)=N/OC(=O)/C=C/c3ccc(Cl)cc3)cc2O1" ?
Result: 91
